Measured viability at 72 h, 0.0244141 uM, listed per entry.
assay.notes: Cytotoxicity assay (CellTiter-Glo, 72 h), Jurkat
Format: cell-based
condition.context: human, Jurkat cells (T lymphoma), conc 0.0244141 uM, raw data (replicates)
Give the value, in units of %, as a plain number.

Below, 3 compounds whose answers are already recorded.
compound: CO[C@H]1C[C@@H]2CC[C@@H](C)[C@@](O)(O2)C(=O)C(=O)N2CCCC[C@H]2C(=O)O[C@H]([C@H](C)C[C@@H]2CC[C@@H](O)[C@H](OC)C2)CC(=O)[C@H](C)/C=C(\C)[C@@H](O)[C@@H](OC)C(=O)[C@H](C)C[C@H](C)/C=C/C=C/C=C/1C [Compound 1, rapamycin, reference compound]
assay.endpoint: viability at 72 h, 0.0244141 uM
unit.text: %
assay.value: 25.3
//
compound: COC1CC2CCC(C)C(O)(O2)C(=O)C(=O)N2CCCCC2C(=O)OC(C(C)CC2CCC(O)C(OC)C2)CC(=O)C(C)C=C(C)C(O)CC(=O)C(C)C=C(C)C=CC=CC=C1C (stereo not shown) [Compound 14]
assay.endpoint: viability at 72 h, 0.0244141 uM
unit.text: %
assay.value: 102
//
compound: COC1CC2CCC(C)C(O)(O2)C(=O)C(=O)N2CCCCC2C(=O)OC(C(C)CC2CCC(O)C(OC)C2)CC(O)CC(=O)C(C)C=C(C)C(O)CC(=O)C(C)CC(C)C=CC=CC=C1C (stereo not shown) [Compound 13]
assay.endpoint: viability at 72 h, 0.0244141 uM
unit.text: %
assay.value: 103

Turning now to a further record.
Q. I am curious: what viability at 72 h, 0.0244141 uM value has been reported for CO[C@H]1C[C@@H]2CC[C@@H](C)[C@@](O)(O2)C(=O)C(=O)N2CCCC[C@H]2C(=O)O[C@H]([C@H](C)C[C@@H]2CC[C@@H](O)[C@H](OC)C2)CC(=O)[C@H](C)/C=C(\C)[C@@H](O)CC(=O)[C@H](C)C[C@H](C)/C=C/C=C(C)/C=C/1C [Compound 2, 27-demethoxy-19-methyl rapamycin] ?
A. 98.4

###

assay.notes: Cytotoxicity assay (CellTiter-Glo, 72 h), SKOV-3
Type: cell-based, human
condition.context: human, SKOV-3 cells (ovarian adenocarcinoma), conc 0.000190735 uM; raw replicate data; read-out: SKOV3 viability (%)
assay.endpoint: viability at 72 h, 0.000190735 uM (%)
Express the result in % but write the number alone.

Some compounds with recorded viability at 72 h, 0.000190735 uM:
compound: CO[C@@H]1/C=C/C=C/[C@@H](C)C[C@@H](C)C(=O)C[C@H](O)/C(C)=C/[C@@H](C)C(=O)C[C@@H]([C@H](C)C[C@@H]2CC[C@@H](O)[C@H](OC)C2)OC(=O)[C@@H]2CCCCN2C(=O)C(=O)[C@]2(O)O[C@@H](CC[C@H]2C)C1 [Compound 9]
viability at 72 h, 0.000190735 uM (%): 105
//
compound: CO[C@H]1C[C@@H]2CC[C@@H](C)[C@@](O)(O2)C(=O)C(=O)N2CCCC[C@H]2C(=O)O[C@H]([C@H](C)C[C@@H]2CC[C@@H](O)[C@H](OC)C2)CC(=O)[C@H](C)/C=C(\C)[C@@H](O)CC(=O)[C@H](C)C[C@H](C)/C=C/C=C(C)/C=C/1C [Compound 2, 27-demethoxy-19-methyl rapamycin]
viability at 72 h, 0.000190735 uM (%): 95.8
//
compound: CO[C@@H]1C[C@H](C[C@@H](C)[C@@H]2CC(=O)[C@H](C)/C=C(\C)[C@@H](O)[C@@H](OC)C(=O)[C@H](C)C[C@H](C)/C=C/C=C/C=C(\C)[C@H](O)C[C@@H]3CC[C@@H](C)[C@@](O)(O3)C(=O)C(=O)N3CCCC[C@H]3C(=O)O2)CC[C@H]1O [Compound 17, (16R)-16-O-demethyl rapamycin]
viability at 72 h, 0.000190735 uM (%): 88.6

Continue with the compound presented below.
Q. Given the compound CO[C@H]1C[C@@H]2CC[C@@H](C)[C@@](O)(O2)C(=O)C(=O)N2CCCC[C@H]2C(=O)O[C@H]([C@H](C)C[C@@H]2CC[C@@H](O)[C@H](OC)C2)CC(=O)[C@H](C)/C=C(\C)[C@@H](O)[C@@H](OC)C(=O)[C@H](C)C[C@H](C)/C=C/C=C/C=C/1C [Compound 1, rapamycin, reference compound] , what is its reported viability at 72 h, 0.000190735 uM?
A. 70.9

###

In this section we review reported viability at 72 h, 0.00610352 uM values for a set of compounds.
assay.notes: Cytotoxicity assay (CellTiter-Glo, 72 h), Jurkat
Type: cell-based
condition.context: human, Jurkat cells (T lymphoma), conc 0.00610352 uM, raw data (replicates)
Method: Jurkat cells were cultured in RPMI1640 medium supplemented with 10% foetal bovine serum, penicillin (50 U/ml), streptomycin (50 μg/ml), and Glutamax. SKOV-3 cells were cultured in DMEM medium supplemented with 10% fetal bovine serum, penicillin (50 U/ml), and streptomycin (50 μg/ml). […] Cell viabilities were measured using a CellTiter-Glo luminescent cell viability assay and EnVision multilabel plate reader.
Expressed in %, but write only the number.

compound: CO[C@@H]1/C=C/C=C/[C@@H](C)C[C@@H](C)C(=O)C[C@H](O)/C(C)=C/[C@@H](C)C(=O)C[C@@H]([C@H](C)C[C@@H]2CC[C@@H](O)[C@H](OC)C2)OC(=O)[C@@H]2CCCCN2C(=O)C(=O)[C@]2(O)O[C@@H](CC[C@H]2C)C1 [Compound 9]
unit.text: %
viability at 72 h, 0.00610352 uM: 105

Lab note: next compound to report on.
Q. Field request: viability at 72 h, 0.00610352 uM | item: CO[C@H]1C[C@@H]2CC[C@@H](C)[C@@](O)(O2)C(=O)C(=O)N2CCCC[C@H]2C(=O)O[C@H]([C@H](C)C[C@@H]2CC[C@@H](O)[C@H](OC)C2)CC(=O)[C@H](C)/C=C(\C)[C@@H](O)CC(=O)[C@H](C)C[C@H](C)/C=C/C=C(C)/C=C/1C [Compound 2, 27-demethoxy-19-methyl rapamycin]
A. 102

###

Readings of viability at 72 h, 0.00152588 uM for the listed compounds
assay.notes: Cytotoxicity assay (CellTiter-Glo, 72 h), MESO-1
Assay type: cell-based
condition.context: human, MESO-1 malignant pleural mesothelioma cells, conc 0.00152588 uM; raw replicate data; read-out: MESO1 viability (%)
Kindly provide the numeric value in % only, without the unit symbol.

# annotated cases, reported viability at 72 h, 0.00152588 uM shown
compound: COC1CC2CCC(C)C(O)(O2)C(=O)C(=O)N2CCCCC2C(=O)OC(C(C)CC2CCC(O)C(OC)C2)CC(=O)C(C)C=C(C)C(O)CC(=O)C(C)C=C(C)C=CC=CC=C1C (stereo not drawn) [Compound 14]
unit.text: %
assay.value: 102

compound: CO[C@@H]1/C=C/C=C/[C@@H](C)C[C@@H](C)C(=O)C[C@H](O)/C(C)=C/[C@@H](C)C(=O)C[C@@H]([C@H](C)C[C@@H]2CC[C@@H](O)[C@H](OC)C2)OC(=O)[C@@H]2CCCCN2C(=O)C(=O)[C@]2(O)O[C@@H](CC[C@H]2C)C1 [Compound 9]
unit.text: %
assay.value: 100

compound: COC1CC2CCC(C)C(O)(O2)C(=O)C(=O)N2CCCCC2C(=O)OC(C(C)CC2CCC(O)C(OC)C2)CCC(C)C=C(C)C(O)C(OC)C(=O)C(C)CC(C)C=CC=CC=C1C (stereo not drawn) [Compound 16, 32-desketorapamycin]
unit.text: %
assay.value: 82.2

compound: CO[C@H]1C[C@@H]2CC[C@@H](C)[C@@](O)(O2)C(=O)C(=O)N2CCCC[C@H]2C(=O)O[C@H]([C@H](C)C[C@@H]2CC[C@@H](O)[C@H](OC)C2)CC(=O)[C@H](C)/C=C(\C)[C@@H](O)CC[C@H](C)/C=C/C=C/C=C/1C [Compound 7]
unit.text: %
assay.value: 97.9

compound: CO[C@@H]1C[C@H](C[C@@H](C)[C@@H]2CC(=O)[C@H](C)/C=C(\C)[C@@H](O)[C@@H](OC)C(=O)[C@H](C)C[C@H](C)/C=C/C=C/C=C(\C)[C@H](O)C[C@@H]3CC[C@@H](C)[C@@](O)(O3)C(=O)C(=O)N3CCCC[C@H]3C(=O)O2)CC[C@H]1O [Compound 17, (16R)-16-O-demethyl rapamycin]
unit.text: %
assay.value: 98.3

compound: CO[C@H]1C[C@@H]2CC[C@@H](C)[C@@](O)(O2)C(=O)C(=O)N2CCCC[C@H]2C(=O)O[C@H]([C@H](C)C[C@@H]2CC[C@@H](O)[C@H](OC)C2)CC(=O)[C@H](C)/C=C(\C)[C@@H](O)[C@@H](OC)C(=O)[C@H](C)C[C@H](C)/C=C/C=C/C=C/1C [Compound 1, rapamycin, reference compound]
unit.text: %
assay.value: 116

compound: COC1CC2CCC(C)C(O)(O2)C(=O)C(=O)N2CCCCC2C(=O)OC(C(C)CC2CCC(O)C(OC)C2)CC(=O)C(C)C=C(C)C(O)C(OC)C(=O)C(C)CC(C)C=CCCC=C1C (stereo not drawn) [Compound 15, 19,20-dihidro-rapamycin]
unit.text: %
assay.value: 97.7

compound: COC1CC2CCC(C)C(O)(O2)C(=O)C(=O)N2CCCCC2C(=O)OC(C(C)CC2CCC(O)C(OC)C2)CC(O)CC(=O)C(C)C=C(C)C(O)CC(=O)C(C)CC(C)C=CC=CC=C1C (stereo not drawn) [Compound 13]
unit.text: %
assay.value: 103

Next:
Q. I'd like to know its viability at 72 h, 0.00152588 uM. The compound in question is CO[C@H]1C[C@@H]2CC[C@@H](C)[C@@](O)(O2)C(=O)C(=O)N2CCCC[C@H]2C(=O)O[C@H]([C@H](C)C[C@@H]2CC[C@@H](O)[C@H](OC)C2)CC(=O)[C@H](C)/C=C(\C)[C@@H](O)CC(=O)[C@H](C)C[C@H](C)/C=C/C=C(C)/C=C/1C [Compound 2, 27-demethoxy-19-methyl rapamycin]
A. 97
